- Tested on: NCI-H226 lung
- PROCEDURE TEXT: NCI-60 one-dose screen, 48 h (100 = growth as untreated, 0 = no growth, -100 = all killed)
- APPLIED CONDITIONS: 10 µM unless noted
This is part of a sample that, as a whole, favours compounds with a hit. Of some 83,000 tested, about 20% had one in any assay. Activity calls are given as the source filed them. How the source made its calls: active means growth percent below 10; inactive means the rest.
A collection of compounds and their measured growth
ASSAY METRIC: growth

COMPOUND STRUCTURE STRING | TARGET OR TEST SYSTEM | ASSAY METRIC | RESULT
c1ccc2[nH]c(-c3cc(-c4ccc5c(c4)OCO5)n[nH]3)nc2c1 | NCI-H226 lung | growth | 70.7% (inactive)
Cc1cccc(C)c1NC(=O)CSC(=S)N1CCCCC1 | NCI-H226 lung | growth | 109% (inactive)
COc1ccc(/C(=C\c2ccc3c(c2)OCO3)C(=O)Nc2nc3ccccc3s2)cc1OC | NCI-H226 lung | growth | 86.9% (inactive)
Cc1cccc(C)c1NCc1nc(-c2ccccc2)n[nH]1 | NCI-H226 lung | growth | 112% (inactive)
Cc1nn(-c2ccc(Cl)cc2)c(=O)n1CCn1cnc2ccccc21 | NCI-H226 lung | growth | 103% (inactive)

----------
growth reference
- Tested on: 786-0 renal
- PROCEDURE TEXT: NCI-60 one-dose screen, 48 h (100 = growth as untreated, 0 = no growth, -100 = all killed)
- APPLIED CONDITIONS: 10 µM unless noted
Compounds without any hit were thinned out: in the full panel of roughly 83,000, 20% have a hit.

COMPOUND STRUCTURE STRING | TARGET OR TEST SYSTEM | growth, %
Cc1cc(N2CCCCC2)nc(N(CCNc2ccnc3cc(Cl)ccc23)Cc2ccco2)n1 | 786-0 renal | 23.4
NCCn1cc(-c2nc(-c3c[nH]c4ncccc34)cs2)c2ccccc21 | 786-0 renal | 89.8
O=C(/C=C/c1ccc2ccccc2c1)Nc1ncc(Cc2ccccc2)s1 | 786-0 renal | 34.2
NCCNc1nc(-c2ccccc2)nc2nc(-c3ccccc3)oc12 | 786-0 renal | 81
C(=C\c1c[nH]c2ccccc12)/c1ccc2ccccc2n1 | 786-0 renal | 77.8
Cc1ccc(-c2nc([P+](c3ccccc3)(c3ccccc3)c3ccccc3)c(N3C[C@H]4C[C@H](C3)c3cccc(=O)n3C4)o2)cc1 | 786-0 renal | 97.1
CN1CCN(CC#CCn2c3c(c4ccccc42)C[C@]2(C)[C@H]4CC[C@@H]5[C@H]6[C@H]7OC(=O)[C@@]6(CCC7(C)C)CC[C@@]5(C)[C@]4(C)CC[C@H]2C3(C)C)CC1 | 786-0 renal | 107
Oc1cccc2oc(=S)[nH]c12 | 786-0 renal | 106
C=C1C(=O)O[C@H]2[C@H]1CC/C(Cn1cc(-c3ccc(OC)cc3)nn1)=C\CC[C@@]1(C)O[C@@H]21 | 786-0 renal | -83.2
Cn1c2ccccc2c2c3c(c4c5cccnc5[nH]c4c21)C(=O)N(O)C3=O | 786-0 renal | 36.6
CCc1ccccc1NC(=O)c1sc2nc3c(cc2c1N)CCCC3 | 786-0 renal | 44.1
COc1ccc2c(c1)c(-c1nc(-c3cn(C)c4ncccc34)cs1)cn2CCN | 786-0 renal | 94.4
COc1ccc(/C=C/C(=O)c2ccc([N+](=O)[O-])cc2)cc1 | 786-0 renal | 94.7
COc1ccc2c(c1)c(-c1nc(-c3c[nH]c4ncccc34)cs1)cn2CCCN1CCCCC1 | 786-0 renal | -75.1
